- measured target: Cytochrome P450 2C9 (Homo sapiens)
- measurement description: Cytochrome P450 Family 2 Subfamily C Member 9 (CYP2C9) small molecule antagonists: luciferase reporter qHTS assay (AID 1671198); note: nearly all actives have a fitted effect of over 50% in size
- cond: P450-Glo CYP2C9 enzyme assay, luciferin luminescence; series mostly up to 115 µM
Results filed as inconclusive are left out. Activity calls are given as the source filed them. Calls come from the whole dose curve; as a rule, active = well fitted inhibition curve with a large enough effect in the repeat runs; inconclusive = weak or mixed curves; inactive = no such curve, though single readings can be large or run the other way.
Tick one outcome: y for active, n for inactive

CCCCCC/C(C=O)=C\c1ccccc1 ... y
CC(O)COCC(C)O (stereo unspecified) ... n
CC(C)(N)CO ... n

Ask | What is the recorded call for this molecule in the test? Cc1cccnc1
Reply | n

Ask | What is the recorded call for this molecule in the test? O=C(O)CCCC[C@@H]1SC[C@@H]2NC(=O)N[C@@H]21
Reply | n

Ask | What is the recorded call for this molecule in the test? CC(C)CC(=O)CC(C)C
Reply | n

Ask | What is the recorded call for this molecule in the test? OC[C@H]1O[C@@](CO)(O[C@H]2O[C@H](CO)[C@@H](O)[C@H](O)[C@H]2O)[C@@H](O)[C@@H]1O
Reply | n

Ask | What is the recorded call for this molecule in the test? O=C(O)c1cc(=O)c2c(OCC(O)COc3cccc4oc(C(=O)O)cc(=O)c34)cccc2o1
Reply | n

Ask | What is the recorded call for this molecule in the test? O=c1[nH]c(=O)n([C@H]2CCCO2)cc1F
Reply | n

Ask | What is the recorded call for this molecule in the test? C=C(C)C(=O)O[C@H]1C[C@@H]2CC[C@@]1(C)C2(C)C
Reply | n

Ask | What is the recorded call for this molecule in the test? O=C(O)c1ccc2c(c1)C(=O)OC2=O
Reply | n

Just for reference, PubChem BioAssay (Tox21) is where these values come from.
